System: whole complement
Experiment: Complement Level Reduction Test (in vivo, guinea pig; serum whole complement by capillary tube assay)
Details: Table I, i.p. 200 mg/kg, 60 min
From the text: An active inhibitor protects C2 from C1 and C4; (ii) Test Code 035 (C3-C9 inhibitor)--This test determines the ability of the late components of human complement (C3-C9) to lyse EAC 142 in the presence of appropriate dilutions of the test compound. […]
outcome_measure: % Inhibition, Intraperitoneal, 60 minutes
Units required after the number.

Exam item: Tell me measured % Inhibition, Intraperitoneal, 60 minutes for `O=C(Nc1ccc(C(=O)Nc2ccc(C(=O)Nc3ccc(S(=O)(=O)[O-])c4cc(S(=O)(=O)[O-])cc(S(=O)(=O)[O-])c34)c(S(=O)(=O)[O-])c2)c(S(=O)(=O)[O-])c1)Nc1ccc(C(=O)Nc2ccc(C(=O)Nc3ccc(S(=O)(=O)[O-])c4cc(S(=O)(=O)[O-])cc(S(=O)(=O)[O-])c34)c(S(=O)(=O)[O-])c2)c(S(=O)(=O)[O-])c1.[Na+].[Na+].[Na+].[Na+].[Na+].[Na+].[Na+].[Na+].[Na+].[Na+]` please.
Marked response: -36%

Exam item: Tell me measured % Inhibition, Intraperitoneal, 60 minutes for `O=C(Nc1cc(C(=O)O)cc(C(=O)Nc2cc(C(=O)O)cc(C(=O)Nc3ccc(S(=O)(=O)O)c4cc(S(=O)(=O)O)cc(S(=O)(=O)O)c34)c2)c1)Nc1cc(C(=O)O)cc(C(=O)Nc2cc(C(=O)O)cc(C(=O)Nc3ccc(S(=O)(=O)O)c4cc(S(=O)(=O)O)cc(S(=O)(=O)O)c34)c2)c1` please.
Marked response: -89%

Exam item: Tell me measured % Inhibition, Intraperitoneal, 60 minutes for `O=C(Nc1ccc(C(=O)Nc2ccc(C(=O)Nc3cc(S(=O)(=O)O)cc4cc(S(=O)(=O)O)cc(S(=O)(=O)O)c34)c(S(=O)(=O)O)c2)c(S(=O)(=O)O)c1)Nc1ccc(C(=O)Nc2ccc(C(=O)Nc3cc(S(=O)(=O)O)cc4cc(S(=O)(=O)O)cc(S(=O)(=O)O)c34)c(S(=O)(=O)O)c2)c(S(=O)(=O)O)c1` please.
Marked response: -24%

Exam item: Tell me measured % Inhibition, Intraperitoneal, 60 minutes for Cc1ccc(C(=O)Nc2ccc(S(=O)(=O)O)c3cc(S(=O)(=O)O)cc(S(=O)(=O)O)c23)cc1NC(=O)c1cccc(NC(=O)Nc2cccc(C(=O)Nc3cc(C(=O)Nc4ccc(S(=O)(=O)O)c5cc(S(=O)(=O)O)cc(S(=O)(=O)O)c45)ccc3C)c2)c1 [Suramin, reference compound] please.
Marked response: -17%

---

Would you kindly list Cl 026 Wells for each of these compounds?
Target: activated human C1 (Homo sapiens, UniProt P09871)
Construct: fluid-phase human C2 as substrate in presence of C4
Sequence (P09871 16-688): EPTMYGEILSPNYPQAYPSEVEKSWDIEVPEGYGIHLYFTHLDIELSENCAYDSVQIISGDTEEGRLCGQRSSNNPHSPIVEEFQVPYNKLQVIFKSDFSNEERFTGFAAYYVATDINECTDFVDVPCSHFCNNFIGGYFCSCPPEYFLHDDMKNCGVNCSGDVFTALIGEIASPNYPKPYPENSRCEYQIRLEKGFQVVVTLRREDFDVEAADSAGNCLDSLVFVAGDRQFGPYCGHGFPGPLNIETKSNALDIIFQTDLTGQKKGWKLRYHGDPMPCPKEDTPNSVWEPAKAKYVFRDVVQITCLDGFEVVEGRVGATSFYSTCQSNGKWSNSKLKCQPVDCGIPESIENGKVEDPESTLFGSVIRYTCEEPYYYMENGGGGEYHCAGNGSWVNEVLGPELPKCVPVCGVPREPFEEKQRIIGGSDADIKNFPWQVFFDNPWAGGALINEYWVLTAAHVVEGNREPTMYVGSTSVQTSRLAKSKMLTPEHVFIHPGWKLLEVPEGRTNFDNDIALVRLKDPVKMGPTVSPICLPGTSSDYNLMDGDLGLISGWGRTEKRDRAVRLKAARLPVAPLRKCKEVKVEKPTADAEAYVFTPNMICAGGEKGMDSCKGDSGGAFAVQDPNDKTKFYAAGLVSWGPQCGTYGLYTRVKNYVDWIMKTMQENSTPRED
Sequence (P00736 18-705 partner): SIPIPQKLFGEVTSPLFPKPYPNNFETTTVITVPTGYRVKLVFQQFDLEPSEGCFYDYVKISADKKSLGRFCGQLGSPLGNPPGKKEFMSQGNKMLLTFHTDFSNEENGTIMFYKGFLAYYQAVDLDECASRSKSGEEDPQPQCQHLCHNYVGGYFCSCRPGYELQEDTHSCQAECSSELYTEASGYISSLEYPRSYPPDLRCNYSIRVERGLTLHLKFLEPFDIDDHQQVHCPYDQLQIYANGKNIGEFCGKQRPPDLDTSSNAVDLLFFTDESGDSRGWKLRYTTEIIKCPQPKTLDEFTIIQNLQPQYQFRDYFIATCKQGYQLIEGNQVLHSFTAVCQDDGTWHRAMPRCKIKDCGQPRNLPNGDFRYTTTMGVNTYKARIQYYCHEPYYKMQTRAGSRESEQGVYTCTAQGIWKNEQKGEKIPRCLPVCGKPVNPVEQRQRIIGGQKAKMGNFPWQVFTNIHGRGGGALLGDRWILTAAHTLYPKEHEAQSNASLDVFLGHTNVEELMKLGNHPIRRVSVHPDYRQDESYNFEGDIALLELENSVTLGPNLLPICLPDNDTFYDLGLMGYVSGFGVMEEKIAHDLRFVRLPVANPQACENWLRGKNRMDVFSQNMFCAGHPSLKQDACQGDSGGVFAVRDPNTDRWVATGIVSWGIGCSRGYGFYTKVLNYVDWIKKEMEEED
Sequence (P02745 23-245 partner): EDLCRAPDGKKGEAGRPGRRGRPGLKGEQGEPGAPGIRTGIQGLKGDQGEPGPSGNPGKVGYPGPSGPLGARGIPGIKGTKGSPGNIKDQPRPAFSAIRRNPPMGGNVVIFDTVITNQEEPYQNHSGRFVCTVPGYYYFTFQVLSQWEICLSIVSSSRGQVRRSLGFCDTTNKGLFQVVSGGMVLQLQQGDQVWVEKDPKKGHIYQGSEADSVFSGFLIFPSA
Sequence (P02746 28-253 partner): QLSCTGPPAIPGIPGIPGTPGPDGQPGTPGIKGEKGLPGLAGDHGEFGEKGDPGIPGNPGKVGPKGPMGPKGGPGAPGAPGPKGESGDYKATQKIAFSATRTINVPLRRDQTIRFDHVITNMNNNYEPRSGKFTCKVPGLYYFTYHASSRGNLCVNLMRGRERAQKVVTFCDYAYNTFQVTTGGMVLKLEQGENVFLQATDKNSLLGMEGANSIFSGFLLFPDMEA
Sequence (P02747 29-245 partner): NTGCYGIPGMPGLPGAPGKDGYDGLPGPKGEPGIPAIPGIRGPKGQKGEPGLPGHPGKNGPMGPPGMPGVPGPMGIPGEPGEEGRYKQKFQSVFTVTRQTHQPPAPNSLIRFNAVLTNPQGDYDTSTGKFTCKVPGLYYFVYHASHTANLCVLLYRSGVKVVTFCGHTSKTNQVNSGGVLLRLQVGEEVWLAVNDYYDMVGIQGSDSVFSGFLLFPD
Test: Test Code 026 (C1 inhibitor)
Type: biochemical
Conditions: Table II (Intermediates); well number in twofold serial dilution assay, higher = more active

Exam item: Tell me measured Cl 026 Wells for `Nc1ccc(C(=O)Nc2ccc(C(=O)Nc3cc(S(=O)(=O)[O-])cc4cc(S(=O)(=O)[O-])cc(S(=O)(=O)[O-])c34)c(S(=O)(=O)[O-])c2)c(S(=O)(=O)[O-])c1.[Na+].[Na+].[Na+].[Na+].[Na+]` please.
Marked response: +5 wells

Exam item: Tell me measured Cl 026 Wells for `Nc1ccc(C(=O)Nc2ccc(C(=O)Nc3ccc(S(=O)(=O)[O-])c4cc(S(=O)(=O)[O-])cc(S(=O)(=O)[O-])c34)c(S(=O)(=O)[O-])c2)c(S(=O)(=O)[O-])c1.[Na+].[Na+].[Na+].[Na+].[Na+]` please.
Marked response: +4 wells

Exam item: Tell me measured Cl 026 Wells for `Nc1cc(C(=O)O)cc(C(=O)Nc2cc(C(=O)O)cc(C(=O)Nc3ccc(S(=O)(=O)[O-])c4cc(S(=O)(=O)[O-])cc(S(=O)(=O)[O-])c34)c2)c1.[Na+].[Na+].[Na+]` please.
Marked response: +3 wells

Exam item: Tell me measured Cl 026 Wells for `Nc1ccc(C(=O)Nc2cc(C(=O)O)cc(C(=O)Nc3ccc(S(=O)(=O)[O-])c4cc(S(=O)(=O)[O-])cc(S(=O)(=O)[O-])c34)c2)c(S(=O)(=O)[O-])c1.[Na+].[Na+].[Na+].[Na+]` please.
Marked response: +3 wells
